Test system: U2OS
measurement-description: Incucyte cell viability with U2OS; also: unitless GR value; below 1 slowed growth and below 0 cell loss
Assay type: toxicity, cell-based
condition-context: human, 12 h, 10 µM, compound concentration 10 uM, replicate number 2
Reported Growth Rate by item:
Keep it simple and answer with nothing but the number.

compound	Growth Rate
Cl.O=c1cc(C2CCNCC2)n2nc3cccc(Cl)c3c2[nH]1	1
Cc1cc(SCc2sc(-c3ccc(C(F)(F)F)cc3)nc2C)ccc1OCC(=O)O	0.77
CC(C)(C)NC(=O)c1cncn1C1CCN(c2ccc(-c3nnc(C(F)(F)F)o3)cn2)CC1	0.34
Cl.Clc1cc2cc(c1)-c1cnn3ccc(nc13)NCCOCCO2	0.85
O=C(Nc1ccccc1C(=O)O)c1cc(S(=O)(=O)c2ccccc2)ccc1Cl	0.55
CCNc1ccc(-c2nn(-c3ccccc3C)c3c2C(C)Cc2nc(NC(=O)OC)sc2-3)cn1.O=C(O)C(F)(F)F (centres undefined)	0.24
C[C@@H](CN1CC[C@@]2(C)c3cccc(O)c3C[C@@H]1C2(C)C)OCc1ccccc1.Cl	0.78
O=C(NCC1(N2CCN(c3ccccc3)CC2)CCOCC1)c1cccnc1Sc1ccccc1	0.86

Now look at this entry.
Find the recorded Growth Rate belonging to Cc1cc(CN)cc(C)c1-c1ncn(C)c1-c1cncn1C.Cl and report it.
0.69

----------
System: Fibroblast
measurement-description: Incucyte cell viability with human fibroblast; also: unitless GR value; below 1 slowed growth and below 0 cell loss
Assay type: toxicity, cell-based
condition-context: 0 h, 10 µM, compound concentration 10 uM, replicate number 2
measured-parameter: Growth Rate
Keep it simple and answer with nothing but the number.

Sample records with Growth Rate:
compound	tested-target	Growth Rate
CC(C)(C)c1ccc(-c2coc3ccc(-c4cn[nH]c4)nc23)cc1	Fibroblast	0.44
CN(Cc1cccc(F)c1CNc1cc(F)c(S(=O)(=O)Nc2cscn2)c(F)c1)C(C)(C)C	Fibroblast	-0.81
Cc1ccccc1C1C(=O)N(C)c2cnc(Nc3ccc(S(N)(=O)=O)cc3)nc2N1C (centres undefined)	Fibroblast	-0.9
COc1ccc([C@@H]2Sc3ccccc3N(CCN(C)C)C(=O)[C@@H]2OC(C)=O)cc1.Cl [DILTIAZEM HYDROCHLORIDE]	Fibroblast	-0.94

Find the recorded Growth Rate belonging to CP(C)(=O)c1ccc(CNC(=O)C2CCN(S(=O)(=O)c3cc(Cl)cc(Cl)c3)CC2)cc1 and report it.
-0.94

Find the recorded Growth Rate belonging to Cc1onc(-c2ccc(F)cc2)c1COc1ccc(C(=O)N2CCS(=O)(=O)CC2)cn1 and report it.
-0.96

Find the recorded Growth Rate belonging to Cc1nnc2n1-c1sc(CCC(=O)N3CCOCC3)cc1C(c1ccccc1Cl)=NC2 and report it.
-0.81

Find the recorded Growth Rate belonging to C[C@@H]1CC(=O)N(C2CC2)N=C1c1ccc(NC(=O)N2Cc3ccncc3C2)cc1 and report it.
-0.77

Find the recorded Growth Rate belonging to O[C@]1(C(F)(F)F)CCCC[C@H]1Nc1ccc(F)cc1 and report it.
0.2

Find the recorded Growth Rate belonging to [2H]C([2H])([2H])NC(=O)c1nnc(NC(=O)C2CC2)cc1Nc1cccc(-c2ncn(C)n2)c1OC and report it.
0

Find the recorded Growth Rate belonging to COc1ccc(-n2nc3c4ccccc4[nH]cc-3c2=O)cc1 and report it.
0.74

Find the recorded Growth Rate belonging to COc1ccc(C(=O)N[C@H](C)c2cccc(C(=O)Nc3nc4c(s3)CN(C)CC4)c2)cc1C.O=C(O)C(F)(F)F and report it.
-0.72

Find the recorded Growth Rate belonging to COc1ccc2nc3ccc(OC)cc3c(SCCCN)c2c1.Cl and report it.
-0.39

Find the recorded Growth Rate belonging to O=C(Nc1ccnc(NC(=O)C2CC2)c1)c1c(Cl)cccc1Cl and report it.
-0.81

Find the recorded Growth Rate belonging to CCCCCCCC/C=C\CCCCCCCC(=O)NCc1ccc(O)c(OC)c1 and report it.
-0.71

Find the recorded Growth Rate belonging to COCCN1CCN(CCn2ccc(Nc3ncc4c(n3)-c3c(nn(C)c3-c3ccccc3)C[C@H]4C)n2)CC1 and report it.
0.9

Find the recorded Growth Rate belonging to Cl.Cl.c1ccc2c(-c3cnn4cc(-c5ccc(N6CCNCC6)cc5)cnc34)ccnc2c1 and report it.
-0.67

Find the recorded Growth Rate belonging to COC(=O)c1sccc1S(=O)(=O)Nc1ccc(Nc2ccccc2)cc1OC and report it.
0.71

Find the recorded Growth Rate belonging to COc1cc2ncnc(Nc3ccc(F)c(Cl)c3)c2cc1OCCN(C)C[C@H](C)O and report it.
0

----------
System: HEK-293T
measurement-description: Incucyte cell viability with HEK293T; also: unitless GR value; below 1 slowed growth and below 0 cell loss
Assay type: toxicity, cell-based
condition-context: human, 6 h, 10 µM, compound concentration 10 uM, replicate number 1
measured-parameter: Growth Rate

Sample records with Growth Rate:
compound	result
C[C@@H]1CC(=O)N(C2CC2)N=C1c1ccc(NC(=O)N2Cc3ccncc3C2)cc1	0.41
Cc1c(C(=O)Nc2cccc(C(F)(F)F)c2)cc(-c2ccccc2)n1CCCN1CCOCC1.Cl	-0.17
O=C(Nc1ccccc1Cl)c1cnc2ccc(C3CCNCC3)cn12.O=C(O)C(=O)O	-0.96
CCC(=O)Nc1cc(Nc2cc(NC3CC3)n3ncc(C#N)c3n2)ccc1C	0.87
O=C1NC(=Nc2c(Cl)cccc2Cl)S/C1=C\c1ccc2nccnc2c1	0.02
CCn1c(-c2nc3cc(C(=O)N4CCCC(N)C4)ccc3n2C)cc2ccccc21.Cl (centres undefined)	0.45
COCc1c(-c2cc3cc(C)cc(OC)c3s2)c2c(N)ncnn2c1CN[C@@H]1CCNC1=O	0.47
CCNc1ccc(-c2nn(-c3ccccc3C)c3c2C(C)Cc2nc(NC(=O)OC)sc2-3)cn1.O=C(O)C(F)(F)F (centres undefined)	-0.42

Find the recorded Growth Rate belonging to CC(Oc1cc(-c2cnn(C3CCNCC3)c2)cnc1N)c1c(Cl)ccc(F)c1Cl (centres undefined) and report it.
-0.85

----------
Test system: U2OS
measurement-description: Incucyte cell viability with U2OS; also: unitless GR value; below 1 slowed growth and below 0 cell loss
Type: toxicity, cell-based
condition-context: human, 6 h, 10 µM, compound concentration 10 uM, replicate number 1
Reported Growth Rate by item:
Keep it simple and answer with nothing but the number.

compound	result-number
CC(Sc1nc2c(cnn2-c2cccc(Cl)c2)c(=O)[nH]1)C(N)=O (stereo not drawn)	-0.28

Find the recorded Growth Rate belonging to O=C(O)CCCCN(CCc1cc(F)ccc1OCc1ccc(-c2ccc(C(F)(F)F)cc2)cc1)Cc1ccc(C(=O)O)cc1 and report it.
0.61

Find the recorded Growth Rate belonging to CCN1CCN(Cc2ccc(NC(=O)c3ccc(C)c(NC(=O)c4cncc(-c5cccs5)c4)c3)cc2C(F)(F)F)CC1 and report it.
-0.87

Find the recorded Growth Rate belonging to Cc1c(-c2c(F)cc(C(N)=O)c3[nH]c4c(c23)CC[C@H](C(C)(C)O)C4)cccc1-n1c(=O)c2cccc(F)c2n(C)c1=O and report it.
0.26

Find the recorded Growth Rate belonging to Cc1nn(-c2nc3ccc(Cl)c(Cl)c3[nH]2)c(O)c1C1OC(=O)c2ccccc21 (stereo not drawn) and report it.
0.82

Find the recorded Growth Rate belonging to CCN1C(=O)N(c2c(F)c(OC)cc(OC)c2F)Cc2cnc3[nH]c(CN4CCOCC4)cc3c21 and report it.
0.58

Find the recorded Growth Rate belonging to CCN(C)C(=O)c1ccc2c(c1)NC(=O)/C2=C(\NC1CCN(C)CC1)c1ccccc1 and report it.
0.68

Find the recorded Growth Rate belonging to O=C(Nc1ccc(-n2nc(C(F)(F)F)cc2C(F)(F)F)cc1)c1ccncc1F and report it.
-0.16

Find the recorded Growth Rate belonging to C[C@H](CCOc1cccc(CC(=O)O)c1)N(Cc1cccc(C(F)(F)F)c1Cl)CC(c1ccccc1)c1ccccc1.Cl and report it.
0.93

----------
Test system: Fibroblast
measurement-description: Incucyte cell viability with human fibroblast; also: unitless GR value; below 1 slowed growth and below 0 cell loss
Format: toxicity, cell-based
condition-context: 24 h, 10 µM, compound concentration 10 uM, replicate number 1
Parameter threshold = 0.7. Response is MET when Growth Rate meets or exceeds it, else NOT MET.

compound	class-assignment
c1ccc2c(c1)SCc1c-2[nH]c2ccccc12	NOT MET
C[C@]12CC[C@H](O)CC1=CC[C@@H]1[C@@H]2CC[C@]2(C)C(n3cnc4ccccc43)=CC[C@@H]12	NOT MET
CC(C)(C)c1cnc(CSc2cnc(NC(=O)C3CCN(CC(=O)NCCOCCOCCOCCNc4cccc5c4C(=O)N(C4CCC(=O)NC4=O)C5=O)CC3)s2)o1 (configuration not stated)	NOT MET
CCS(=O)(=O)c1ccc(OC)c(Nc2ncc(-c3cccc(F)c3)o2)c1 [GW621970X]	MET
Cc1cc(Cn2c(N3CC4(CNC4)C3)nc3c(N4CCN(C)CC4)cc(Cl)cc32)cc(C)c1F	NOT MET
CCN(C)S(=O)(=O)Nc1cccc(-c2ccc3c(NC(=O)C4CC4)n[nH]c3c2)c1	NOT MET

Determine whether this compound has Growth Rate no lower than 0.7: CC(=O)c1c(C)c2cnc(Nc3ccc(N4CCN(CCCCNC(=O)COc5cccc6c5C(=O)N(C5CCC(=O)NC5=O)C6=O)CC4)cn3)nc2n(C2CCCC2)c1=O (configuration not stated)
MET

Determine whether this compound has Growth Rate no lower than 0.7: CCCNc1ccc2ncc(-c3ccncc3)n2n1
NOT MET

Determine whether this compound has Growth Rate no lower than 0.7: Cc1nc2ccc(Oc3ccc(F)cc3)cc2c(=O)n1C[C@H]1CCCN(C(C)C)C1.Cl
NOT MET
